Experimental System: T1, human tissue factor (TF) on human bladder carcinoma cells J82 (human, UniProt P13726 33-295)
T1 construct: whole, on cells; also called the antigen; J82 cells
T1 sequence (P13726 33-295): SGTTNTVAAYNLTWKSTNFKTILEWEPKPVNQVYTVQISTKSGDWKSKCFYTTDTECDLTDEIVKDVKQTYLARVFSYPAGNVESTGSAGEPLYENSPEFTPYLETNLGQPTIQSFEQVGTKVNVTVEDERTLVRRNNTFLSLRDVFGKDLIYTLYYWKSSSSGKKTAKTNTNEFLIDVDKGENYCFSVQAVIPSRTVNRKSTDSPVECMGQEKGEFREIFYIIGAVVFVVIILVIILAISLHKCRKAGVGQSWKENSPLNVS
Test Description: cell ELISA on paraformaldehyde-fixed J82 cells; AP-conjugated goat anti-human IgGγ; absorbance 405/655 nm
Provide the recorded EC50 (read off the curve) for the entries that follow.

Binder	EC50 (read off the curve)
H chain humanized version g/L chain humanized version b antibody (antibody, IgG4, V domains shown, also called g-b) VH: QVQLLESGAVLARPGTSVKISCKASGFNIKDYYMHWVKQRPGQGLEWIGGNDPANGHSMYDPKFQGKATLTADESSSTAYMQLSSLRSEDSAVYSCARDSGYAMDYWGQGTLVTVSS VL: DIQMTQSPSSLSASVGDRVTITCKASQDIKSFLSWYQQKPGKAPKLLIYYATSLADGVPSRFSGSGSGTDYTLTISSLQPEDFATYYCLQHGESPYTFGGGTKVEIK	~0.04 µg/mL

Fill blank: measured EC50 (read off the curve) of the binder H chain humanized version b/L chain humanized version a antibody (antibody, IgG4, V domains shown, also called b-a) VH: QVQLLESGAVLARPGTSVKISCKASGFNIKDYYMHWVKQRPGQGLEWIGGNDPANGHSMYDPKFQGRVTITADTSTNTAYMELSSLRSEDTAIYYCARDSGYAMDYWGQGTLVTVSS VL: DIQMTQSPSSLSASVGDRVTITCKASQDIKSFLSWYQQKPGKAPKLLIYYATSLADGVPSRFSGSGSGTDFTLTISSLQPEDFATYYCLQHGESPYTFGGGTKVEIK is ____.
~0.1 µg/mL

Data credit: patent US7494647
